system: PBT; test: Extent of apoptosis and necrosis (annexin-V, PI, DAPI staining); assay type: cell-based, human; settings: caspase inhibitor 50 μM
Where a SMILES comes first, the peptide text is derived from it. The star is where a group is joined. Cbz = O=C(OCc1ccccc1)*; CH2F = FC*
PROPERTY NAME: effect on galectin-2 induced T cell apoptosis

Using PBT as the test system, report measured effect on galectin-2 induced T cell apoptosis of COC(=O)CC[C@H](NC(=O)[C@H](CC(C)C)NC(=O)OCc1ccccc1)C(=O)N[C@@H](Cc1cnc[nH]1)C(=O)N[C@@H](CC(=O)OC)C(=O)CF [zLEHD, Z-Leu-Glu(Ome)-His-Asp-(Ome)-Ch2F] (Cbz-LE(OMe)HD(OMe)-CH2F) .
significantly inhibited

Using PBT as the test system, report measured effect on galectin-2 induced T cell apoptosis of COC(=O)CC[C@H](NC(=O)[C@H](CC(=O)OC)NC(=O)OCc1ccccc1)C(=O)N[C@H](C(=O)N[C@@H](CC(=O)OC)C(=O)CF)C(C)C [zDEVD] .
significantly inhibited

Using PBT as the test system, report measured effect on galectin-2 induced T cell apoptosis of COC(=O)C[C@H](NC(=O)[C@H](C)NC(=O)[C@@H](NC(=O)OCc1ccccc1)C(C)C)C(=O)CF [zVAD, Z-Val-Ala-Asp(OMe)-fluoromethylketone] (Cbz-Val-Ala-Asp(OMe)-CH2F) .
significantly inhibited

---

system: PBT; assay: Extent of apoptosis and necrosis (annexin-V, PI, DAPI staining); type: cell-based, human; details: caspase inhibitor 50 μM
Where a SMILES comes first, the peptide text is derived from it. The star is where a group is joined. Cbz = O=C(OCc1ccccc1)*; CH2F = FC*
PROPERTY NAME: effect on galectin-7 induced cell death

Quick one: give measured effect on galectin-7 induced cell death for COC(=O)CC[C@H](NC(=O)[C@H](CC(C)C)NC(=O)OCc1ccccc1)C(=O)N[C@@H](Cc1cnc[nH]1)C(=O)N[C@@H](CC(=O)OC)C(=O)CF [zLEHD, Z-Leu-Glu(Ome)-His-Asp-(Ome)-Ch2F] (Cbz-LE(OMe)HD(OMe)-CH2F)
not

Quick one: give measured effect on galectin-7 induced cell death for COC(=O)CC[C@H](NC(=O)[C@H](CC(=O)OC)NC(=O)OCc1ccccc1)C(=O)N[C@H](C(=O)N[C@@H](CC(=O)OC)C(=O)CF)C(C)C
inhibited

Quick one: give measured effect on galectin-7 induced cell death for COC(=O)C[C@H](NC(=O)[C@H](C)NC(=O)[C@@H](NC(=O)OCc1ccccc1)C(C)C)C(=O)CF [zVAD, Z-Val-Ala-Asp(OMe)-fluoromethylketone] (Cbz-Val-Ala-Asp(OMe)-CH2F)
inhibited
